Sourced from patent US10800767B2

Quick list: EC50 per entry.
# test-system: TR beta-LBD (thyroid hormone receptor beta) (Homo sapiens (Human))
# Sequence (P10828 217-461): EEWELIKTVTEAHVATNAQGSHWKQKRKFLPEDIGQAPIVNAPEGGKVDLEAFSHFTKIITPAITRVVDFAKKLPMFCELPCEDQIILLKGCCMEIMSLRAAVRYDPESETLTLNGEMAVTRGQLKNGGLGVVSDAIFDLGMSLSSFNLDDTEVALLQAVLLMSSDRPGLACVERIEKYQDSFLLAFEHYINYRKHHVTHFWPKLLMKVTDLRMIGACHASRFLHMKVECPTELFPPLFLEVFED
# protocol-details: LanthaScreen TR-FRET Thyroid Receptor beta Coactivator Assay (agonist screening)
# setup-conditions: TR-FRET coactivator assay, TR beta-LBD 1.0 nM, 2 hour incubation; average of duplicate runs; read-out: EC50 THRβ-FRET

molecule	EC50
Cn1nc(Cc2c(Cl)cc(NC(=O)c3noc(=O)[nH]3)cc2Cl)cc(C2CC2)c1=O [Example 22]	181 nM
CC(C)c1cc(Oc2c(Cl)cc(NC(C)c3noc(=O)[nH]3)cc2Cl)nn(C)c1=O (single isomer, unassigned) [Example 3-P2]	732 nM

EC50 measured on CC(C)c1cc(Oc2c(Cl)cc(N(C)Cc3noc(=O)[nH]3)cc2Cl)nn(C)c1=O [Example 2] = > 5000 nM

EC50 measured on CC(CO)c1cc(Oc2c(Cl)cc(NC(=O)c3noc(=O)[nH]3)cc2Cl)nn(C)c1=O (stereo not shown) [Example 35] = 762 nM
